- target_desc: T1, CRBN, Q96SW2;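 also: pooled lentiviral library of zinc finger degron-EGFP fusions in mCherry-positive Jurkat cells, FACS-sorted after compound exposure, with degron abundance counted by next-generation sequencing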
- T1 chain: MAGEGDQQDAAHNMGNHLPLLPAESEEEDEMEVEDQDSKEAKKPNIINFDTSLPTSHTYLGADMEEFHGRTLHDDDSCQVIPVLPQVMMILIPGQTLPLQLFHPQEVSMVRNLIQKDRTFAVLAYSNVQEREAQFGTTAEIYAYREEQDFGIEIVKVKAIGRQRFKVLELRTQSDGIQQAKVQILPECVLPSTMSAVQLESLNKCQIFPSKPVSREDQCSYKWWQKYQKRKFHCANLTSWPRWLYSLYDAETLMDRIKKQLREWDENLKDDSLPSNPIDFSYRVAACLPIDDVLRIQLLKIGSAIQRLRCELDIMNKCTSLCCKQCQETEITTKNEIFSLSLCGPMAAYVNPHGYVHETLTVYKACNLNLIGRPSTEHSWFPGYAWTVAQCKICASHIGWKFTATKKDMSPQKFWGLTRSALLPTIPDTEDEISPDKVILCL
- assay_name: log2 fold change of degron read counts, EGFP-low vs EGFP+ sorted cells (limma voom), compound-induced degradation; higher = more compound-induced degradation of the degron-EGFP fusion; degrons are variants of IKZF1/3 zinc finger 2; compound dose not given here
- condition: Jurkat; 18 h; compound: compound 33 (diphenyl IMiD analogue)
The full ranking holds about 8,300 sequences; the median of “log2 fold change of degron read counts, EGFP-low vs EGFP+ sorted cells (limma voom), compound-induced degradation” is about -1.1, and the highest 2% start at about 3.2. What follows is part of a selection rich in the highest values, with near analogues and random picks from the rest.
Decision: log2 fold change of degron read counts compared against 0.5; not below it gives class 1, below it gives class 0.

[
  {
    "residue_codes": "FYCDICGACFTQKGNLLRHIKL [46F_47Y_49D_50I_52G_53A_54C_55F_67L_, Q9UKT9]",
    "assigned_label": "class 1"
  },
  {
    "residue_codes": "LECPICGFGCTQKGNLLRHIKL [46L_47E_49P_50I_52G_53F_54G_55C_67L_, Q9UKT9]",
    "assigned_label": "class 1"
  },
  {
    "residue_codes": "FQCSVCGHDFTQKGNLLRHIKL [46F_47Q_49S_50V_52G_53H_54D_55F_67L_, Q9UKT9]",
    "assigned_label": "class 0"
  },
  {
    "residue_codes": "FICEQCGAIFTQKGNLLRHIKL [46F_47I_49E_50Q_52G_53A_54I_55F_67L_, Q9UKT9]",
    "assigned_label": "class 0"
  },
  {
    "residue_codes": "FRCDICGACFTQKGNLLRHIKL [46F_47R_49D_50I_52G_53A_54C_55F_67L_, Q9UKT9]",
    "assigned_label": "class 1"
  },
  {
    "residue_codes": "LTCEICGFSCTQKGNLLRHIKL [46L_47T_49E_50I_52G_53F_54S_55C_67L_, Q9UKT9]",
    "assigned_label": "class 1"
  },
  {
    "residue_codes": "FMCDICGACFTQKGNLLRHIKL [46F_47M_49D_50I_52G_53A_54C_55F_67L_, Q9UKT9]",
    "assigned_label": "class 1"
  },
  {
    "residue_codes": "FVCEVCGAIFTQKGNLLRHIKL [46F_47V_49E_50V_52G_53A_54I_55F_67L_, Q9UKT9]",
    "assigned_label": "class 1"
  },
  {
    "residue_codes": "FQCDICGACFTQKGNLLRHIKL [46F_47Q_49D_50I_52G_53A_54C_55F_67L_, Q9UKT9]",
    "assigned_label": "class 1"
  },
  {
    "residue_codes": "FHCPICGAKFTQKGNLLRHIKL [46F_47H_49P_50I_52G_53A_54K_55F_67L_, Q9UKT9]",
    "assigned_label": "class 0"
  },
  {
    "residue_codes": "FECPICGHYFTQKGNLLRHIKL [46F_47E_49P_50I_52G_53H_54Y_55F_67L_, Q9UKT9]",
    "assigned_label": "class 0"
  },
  {
    "residue_codes": "FWCPICGAKFTQKGNLLRHIKL [46F_47W_49P_50I_52G_53A_54K_55F_67L_, Q9UKT9]",
    "assigned_label": "class 1"
  },
  {
    "residue_codes": "FCCDICGACFTQKGNLLRHIKL [46F_47C_49D_50I_52G_53A_54C_55F_67L_, Q9UKT9]",
    "assigned_label": "class 1"
  },
  {
    "residue_codes": "FHCEVCGARFTQKGNLLRHIKL [46F_47H_49E_50V_52G_53A_54R_55F_67L_, Q9UKT9]",
    "assigned_label": "class 0"
  },
  {
    "residue_codes": "FQCEVCGAIFTQKGNLLRHIKL [46F_47Q_49E_50V_52G_53A_54I_55F_67L_, Q9UKT9]",
    "assigned_label": "class 1"
  },
  {
    "residue_codes": "LCCEICGFSCTQKGNLLRHIKL [46L_47C_49E_50I_52G_53F_54S_55C_67L_, Q9UKT9]",
    "assigned_label": "class 1"
  },
  {
    "residue_codes": "FTCEVCGALFTQKGNLLRHIKL [46F_47T_49E_50V_52G_53A_54L_55F_67L_, Q9UKT9]",
    "assigned_label": "class 0"
  },
  {
    "residue_codes": "FGCNVCGACFTQKGNLLRHIKL [46F_47G_49N_50V_52G_53A_54C_55F_67L_, Q9UKT9]",
    "assigned_label": "class 1"
  },
  {
    "residue_codes": "FRCPICGAKFTQKGNLLRHIKL [46F_47R_49P_50I_52G_53A_54K_55F_67L_, Q9UKT9]",
    "assigned_label": "class 0"
  }
]
